Where these numbers come from: PubChem BioAssay AID2330

experiment: NOMO-1 AML cell viability reduction, primary screen, STK33 inhibitor project, CellTiter-Glo luminescence (AID 2330); settings: NOMO-1 AML viability, 72 h, stronger effect = higher value, concentration not given here
The whole screen tested about 37,000 compounds, of which about 2,800 (7.6%) were called active. Another 1% or so got no clear call; they are omitted. What follows is part of a selection rich in actives, with near analogues and random picks from the rest.
Each item that follows carries a reported inhibition.
ENDPOINT_NAME: inhibition (%)

COc1ccc(CN(C)C[C@H]2Oc3ccc(NC(=O)Cc4ccccc4)cc3CC(=O)N([C@@H](C)CO)C[C@@H]2C)cc1: 22.8
C[C@H]1CN([C@@H](C)CO)C(=O)c2cc(NC(=O)C3CC3)ccc2O[C@@H]1CN(C)Cc1ccc(Oc2ccccc2)cc1: 16.2
C[C@@H]1CN([C@H](C)CO)C(=O)Cc2cc(NC(=O)CCCN(C)C)ccc2O[C@@H]1CN(C)Cc1ccc(Oc2ccccc2)cc1: 19.5
C[C@@H]1CN([C@H](C)CO)C(=O)Cc2cc(NC(=O)Cc3ccccc3)ccc2O[C@H]1CN(C)Cc1ccc(Oc2ccccc2)cc1: 13.7
C[C@H](CO)N1C[C@H](C)[C@H](CN(C)Cc2ccccc2)Oc2ccc(NC(=O)Cc3ccccc3)cc2C1=O: 7.66
C[C@@H]1CN([C@H](C)CO)C(=O)Cc2cc(NC(=O)NC3CCCCC3)ccc2O[C@H]1CN(C)Cc1ccc(Cl)c(Cl)c1: 20.7
C[C@@H]1CN([C@@H](C)CO)C(=O)c2cc(NC(=O)Cc3ccccc3)ccc2O[C@@H]1CN(C)Cc1ccc(Oc2ccccc2)cc1: 112
